Please provide measured z-score of subpopulation abundance for the entries that follow.
- System: Saccharomyces cerevisiae BY4741 SeMeCo community
- TEST_DETAILS: z-score of subpopulation abundance vs DMSO median, subpopulation auxotrophic for HLUM; higher = larger share of this subpopulation than in DMSO controls
- STUDY_CONDITIONS: 10 µM; 24 h; SM minimal medium; subpopulation (auxotrophy): HLUM

Record CCC(=O)c1c(O)cc(O)cc1O [Flopropione] , field z-score of subpopulation abundance: -0.26

Record Oc1c(I)cc(I)c2cccnc12 [Diiodohydroxyquinoline] , field z-score of subpopulation abundance: 1.67

Record O=C(O)Cc1ccccc1Nc1c(Cl)cccc1Cl [Diclofenac Diethylamine] , field z-score of subpopulation abundance: 0

Record C[C@H](Nc1ncnc2nc[nH]c12)c1cc2cccc(Cl)c2c(=O)n1-c1ccccc1 [Duvelisib (IPI-145, INK1197)] , field z-score of subpopulation abundance: 0.98

Record O=C(O)c1cc(-c2ccc(F)cc2F)ccc1O [Diflunisal] , field z-score of subpopulation abundance: -0.39

###

- System: Saccharomyces cerevisiae BY4741 SeMeCo community
- TEST_DETAILS: z-score of subpopulation abundance vs DMSO median, subpopulation auxotrophic for LU; higher = larger share of this subpopulation than in DMSO controls
- STUDY_CONDITIONS: 10 µM; 24 h; SM minimal medium; subpopulation (auxotrophy): LU
Counter-ions that a name gives are not always drawn.
MEASURED_PROPERTY: z-score of subpopulation abundance

Record O=C(N[C@H](CO)[C@H](O)c1ccc([N+](=O)[O-])cc1)C(Cl)Cl , field z-score of subpopulation abundance: -0.22

Record CCCCCCCCc1ccc(CCC(N)(CO)CO)cc1 , field z-score of subpopulation abundance: -0.72

Record Cc1ccc(O)c([C@H](CCN(C(C)C)C(C)C)c2ccccc2)c1 [Tolterodine tartrate] , field z-score of subpopulation abundance: -0.23

Record NCC[C@H](O)C(=O)N[C@@H]1C[C@H](N)[C@@H](O[C@H]2O[C@H](CN)[C@@H](O)[C@H](O)[C@H]2O)[C@H](O)[C@H]1O[C@H]1O[C@H](CO)[C@@H](O)[C@H](N)[C@H]1O [Amikacin hydrate] , field z-score of subpopulation abundance: -0.95

Record C[C@H]1c2cccc(O)c2C(O)=C2C(=O)[C@]3(O)C(O)=C(C(N)=O)C(=O)[C@@H](N(C)C)[C@@H]3[C@@H](O)[C@@H]21 [Doxycycline monohydrate] , field z-score of subpopulation abundance: -0.41

Record COc1ccc(C2CNC(=O)C2)cc1OC1CCCC1 (configuration not stated) [Rolipram] , field z-score of subpopulation abundance: -0.29

Record CC(=O)Oc1ccccc1C(=O)O , field z-score of subpopulation abundance: 0.01

Record Cc1ccsc1/C=C/C1=NCCCN1C [Morantel tartrate] , field z-score of subpopulation abundance: 0.13

Record COc1c(N2CCNC(C)C2)c(F)cc2c(=O)c(C(=O)O)cn(C3CC3)c12 (configuration not stated) , field z-score of subpopulation abundance: 0.36

Record CCCCCCCN(CC)CCCC(O)c1ccc(NS(C)(=O)=O)cc1 (configuration not stated) [Ibutilide Fumarate] , field z-score of subpopulation abundance: 0.14

Record CCOC(=O)C1=C(C)NC(C)=C(C(=O)OC)C1c1cccc(Cl)c1Cl (configuration not stated) , field z-score of subpopulation abundance: -6.85

Record CN(C)CC/C=C1/c2ccccc2Sc2ccc(Cl)cc21 , field z-score of subpopulation abundance: -0.59

Record COc1ccc(CCN(C)CCCC(C#N)(c2ccc(OC)c(OC)c2)C(C)C)cc1OC (configuration not stated) [Verapamil HCl] , field z-score of subpopulation abundance: -0.58

Record C[C@@H]1CN(c2c(F)c(N)c3c(=O)c(C(=O)O)cn(C4CC4)c3c2F)C[C@H](C)N1 , field z-score of subpopulation abundance: -0.36

Record Clc1ccc2c(N3CCN(CCCN4CCN(c5ccnc6cc(Cl)ccc56)CC4)CC3)ccnc2c1 [Piperaquine phosphate] , field z-score of subpopulation abundance: -0.13

Record Cc1ccc(Sc2ccccc2N2CCNCC2)c(C)c1 , field z-score of subpopulation abundance: -0.09

Record Cc1onc(-c2c(F)cccc2Cl)c1C(=O)N[C@@H]1C(=O)N2[C@@H]1SC(C)(C)[C@@H]2C(=O)O [Flucloxacillin sodium] , field z-score of subpopulation abundance: 0.16

Record O=C1N=C(O)NC1(c1ccccc1)c1ccccc1 [Phenytoin Sodium] , field z-score of subpopulation abundance: 0.96

Record CCCN[C@H]1CCc2nc(N)sc2C1 [Pramipexole dihydrochloride] , field z-score of subpopulation abundance: -0.61

Record CNCCCN1c2ccccc2CCc2ccccc21 [Desipramine Hydrochloride] , field z-score of subpopulation abundance: -0.28

Record COc1ccc([C@@H]2Sc3ccccc3N(CCN(C)C)C(=O)[C@@H]2OC(C)=O)cc1 [Diltiazem HCl] , field z-score of subpopulation abundance: -0.4

Record CC(C)C(=O)c1c(C(C)C)nn2ccccc12 , field z-score of subpopulation abundance: 0.04

Record CN1CC2c3ccccc3Oc3ccc(Cl)cc3C2C1 (configuration not stated) [Asenapine maleate] , field z-score of subpopulation abundance: 0.61

Record CC(=O)Oc1ccc(C(=C2CCCCC2)c2ccc(OC(C)=O)cc2)cc1 , field z-score of subpopulation abundance: -0.48

Record Cc1nc2n(c(=O)c1CCN1CCC(c3noc4cc(F)ccc34)CC1)CCCC2 , field z-score of subpopulation abundance: 0.52

Record O=C(Nc1c(Cl)cncc1Cl)c1ccc(OC(F)F)c(OCC2CC2)c1 , field z-score of subpopulation abundance: 0.34

Record NC(CO)(CO)CO , field z-score of subpopulation abundance: 0.36

###

Please provide measured z-score of subpopulation abundance for the entries that follow.
- System: Saccharomyces cerevisiae BY4741 SeMeCo community
- TEST_DETAILS: z-score of subpopulation abundance vs DMSO median, subpopulation auxotrophic for L; higher = larger share of this subpopulation than in DMSO controls
- STUDY_CONDITIONS: 10 µM; 24 h; SM minimal medium; subpopulation (auxotrophy): L
Counter-ions that a name gives are not always drawn.
Lab note: jot the number down without any unit.

Record Cc1c(-c2ccc(O)cc2)n(Cc2ccc(OCCN3CCCCCC3)cc2)c2ccc(O)cc12 [Bazedoxifene Acetate] , field z-score of subpopulation abundance: -0.2

Record CN(C)CCC=C1c2ccccc2CCc2ccccc21 [Amitriptyline HCl] , field z-score of subpopulation abundance: -0.56

Record NNc1nncc2ccccc12 [Hydralazine HCl] , field z-score of subpopulation abundance: -0.91

Record CC[C@H]1OC(=O)[C@H](C)[C@@H](O[C@H]2C[C@@](C)(OC)[C@@H](O)[C@H](C)O2)[C@H](C)[C@@H](O[C@@H]2O[C@H](C)C[C@H](N(C)C)[C@H]2O)[C@](C)(O)C[C@@H](C)C(=O)[C@H](C)[C@H]2OC(=O)O[C@@]21C [Erythromycin Cyclocarbonate] , field z-score of subpopulation abundance: 1.01

Record CCCCCOc1ccccc1/C(=C\SC)n1ccnc1 [Neticonazole Hydrochloride] , field z-score of subpopulation abundance: -1.5

Record N[C@H]1CONC1=O [L-Cycloserine] , field z-score of subpopulation abundance: 2.81

Record O=C(Cn1cnnn1)N[C@@H]1C(=O)N2C(C(=O)O)=C(CSc3nncs3)CS[C@H]12 [Ceftezole] , field z-score of subpopulation abundance: -0.41

Record Cc1cccc(C)c1OCC(C)N (stereo not given) [Mexiletine HCl] , field z-score of subpopulation abundance: -0.39

Record CN1CCCN=C1/C=C/c1cccs1 [Pyrantel Pamoate] , field z-score of subpopulation abundance: -0.64

Record CCCCCCCCc1ccc(CCC(N)(CO)CO)cc1 [Fingolimod] , field z-score of subpopulation abundance: -1.22

###

- Tested on: Saccharomyces cerevisiae BY4741 SeMeCo community
- TEST_DETAILS: z-score of subpopulation abundance vs DMSO median, subpopulation auxotrophic for HLUM; higher = larger share of this subpopulation than in DMSO controls
- STUDY_CONDITIONS: 10 µM; 24 h; SM minimal medium; subpopulation (auxotrophy): HLUM
MEASURED_PROPERTY: z-score of subpopulation abundance
Lab note: jot the number down without any unit.

Record CO/N=C(\C(=O)N[C@@H]1C(=O)N2C(C(=O)O)=C(COC(N)=O)CS[C@H]12)c1ccco1 [Cefuroxime sodium] , field z-score of subpopulation abundance: -0.98

Record N[C@@H](C(=O)N[C@@H]1C(=O)N2C(C(=O)O)=C(Cl)CS[C@H]12)c1ccccc1 , field z-score of subpopulation abundance: 0.66

Record O=c1[nH]c(=O)n([C@H]2C[C@H](O)[C@@H](CO)O2)cc1/C=C/Br , field z-score of subpopulation abundance: -1.13

###

- Tested on: Saccharomyces cerevisiae BY4741 SeMeCo community
- TEST_DETAILS: z-score of subpopulation abundance vs DMSO median, subpopulation auxotrophic for HU; higher = larger share of this subpopulation than in DMSO controls
- STUDY_CONDITIONS: 10 µM; 24 h; SM minimal medium; subpopulation (auxotrophy): HU
Where a name gives a salt, the structure may show the parent alone.
Please provide measured z-score of subpopulation abundance for the entries that follow.

Record CC#C[C@]1(O)CC[C@H]2[C@@H]3CCC4=CC(=O)CCC4=C3[C@@H](c3ccc(N(C)C)cc3)C[C@@]21C , field z-score of subpopulation abundance: 0.29

Record CCCN1CCCC[C@H]1C(=O)Nc1c(C)cccc1C [Ropivacaine HCl] , field z-score of subpopulation abundance: -0.21

Record C[C@]12CC[C@@H]3c4ccc(OS(=O)(=O)O)cc4CC[C@H]3[C@@H]1CCC2=O [Estropipate] , field z-score of subpopulation abundance: -0.17

Record CCc1cccc2c3c([nH]c12)C(CC)(CC(=O)O)OCC3 (centres undefined) , field z-score of subpopulation abundance: -0.8

Record Oc1ccc([C@H]2COc3cc(O)ccc3C2)cc1 , field z-score of subpopulation abundance: -0.01

Record COc1ccnc(C[S+]([O-])c2nc3cc(-n4cccc4)ccc3[nH]2)c1C (centres undefined) [Ilaprazole] , field z-score of subpopulation abundance: -0.45

Record Cc1ccc(Cl)c(Nc2ccccc2C(=O)O)c1Cl [Meclofenamate Sodium] , field z-score of subpopulation abundance: -0.21

Record COC(=O)C1=C(C)NC(C)=C(C(=O)OC(C)(C)CN(C)CCC(c2ccccc2)c2ccccc2)C1c1cccc([N+](=O)[O-])c1 (centres undefined) , field z-score of subpopulation abundance: 0.16

Record CO/N=C1\C[C@]2(C[C@@H]3C[C@@H](C/C=C(\C)C[C@@H](C)/C=C/C=C4\CO[C@@H]5[C@H](O)C(C)=C[C@@H](C(=O)O3)[C@]45O)O2)O[C@H](/C(C)=C/C(C)C)[C@H]1C , field z-score of subpopulation abundance: 2.12

Record CC[C@H](c1ccc(O)cc1)[C@@H](CC)c1ccc(O)cc1 , field z-score of subpopulation abundance: -0.58

Record COc1ccc(CNc2nc(N3CCC[C@H]3CO)ncc2C(=O)NCc2ncccn2)cc1Cl , field z-score of subpopulation abundance: 0.11

Record CCc1c(C)[nH]c2c1C(=O)C(CN1CCOCC1)CC2 (centres undefined) [Molindone hydrochloride] , field z-score of subpopulation abundance: -0.73

Record O=C(NCCN1CCOCC1)c1ccc(Cl)cc1 , field z-score of subpopulation abundance: -1.32

Record CCOC(=O)c1ccc(O)cc1 , field z-score of subpopulation abundance: 1.78
